# Test system: NCI-H929 (Plasma Cell Myeloma)
# method: combination Emax (second highest fraction inhibited in the dose matrix, 72 h); higher = more inhibition; extreme values may be limits of the assay
Would you kindly list combination Emax for each of these molecules?
Numbers only.

C[C@@H]1COCCN1c1cc(C2([S@](C)(=N)=O)CC2)nc(-c2ccnc3[nH]ccc23)n1 [AZD6738] + Nc1ccn([C@@H]2O[C@H](CO)[C@@H](O)C2(F)F)c(=O)n1 [Gemcitabine] (first compound max 10 µM, 7x7, partner max 0.3 µM) ... 0.906

Below is a list of molecules. For each, state its recorded combination Emax.
1. C[C@@H]1COCCN1c1cc(C2([S@](C)(=N)=O)CC2)nc(-c2ccnc3[nH]ccc23)n1 [AZD6738] + C1CC(C1)(C(=O)[O-])C(=O)[O-].N.N.[Pt+2] [Carboplatin] (first compound max 10 µM, 7x7, partner max 10 µM)
2. Cc1c2c(nn1C)CSCc1cc(n(C)n1)CSc1cc(c3ccccc3c1)OCCCc1c(C(=O)O)n(C)c3c-2c(Cl)ccc13 [AZD5991] + Nc1ccn([C@@H]2O[C@H](CO)[C@@H](O)C2(F)F)c(=O)n1 [Gemcitabine] (first compound max 1 µM, 7x7, partner max 0.3 µM)

Result string:
1. 0.801
2. 1

Hey, can you go through the list below and give me combination Emax for every item?
1. CC1(C)CCC(CN2CCN(c3ccc(C(=O)NS(=O)(=O)c4ccc(NCC5CCOCC5)c([N+](=O)[O-])c4)c(Oc4cnc5[nH]ccc5c4)c3)CC2)=C(c2ccc(Cl)cc2)C1 [Venetoclax] + C[C@@H](Nc1cc(F)cc(F)c1)c1cc(C(=O)N(C)C)cc2c(=O)cc(N3CCOCC3)oc12 [AZD8186] (first compound max 1 µM, 7x7, partner max 3 µM)
2. C=CCn1c(=O)c2cnc(Nc3ccc(N4CCN(C)CC4)cc3)nc2n1-c1cccc(C(C)(C)O)n1 [AZD1775] + CCc1c2c(nc3ccc(O)cc13)-c1cc3c(c(=O)n1C2)COC(=O)[C@]3(O)CC [SN-38] (first compound max 1 µM, partner max 0.3 µM)
3. CC1(C)CCC(CN2CCN(c3ccc(C(=O)NS(=O)(=O)c4ccc(NCC5CCOCC5)c([N+](=O)[O-])c4)c(Oc4cnc5[nH]ccc5c4)c3)CC2)=C(c2ccc(Cl)cc2)C1 [Venetoclax] + CS(=O)(=O)CCNCc1ccc(-c2ccc3ncnc(Nc4ccc(OCc5cccc(F)c5)c(Cl)c4)c3c2)o1 [Lapatinib] (first compound max 1 µM, 7x7, partner max 10 µM)
4. C[C@@H]1COCCN1c1cc(C2([S@](C)(=N)=O)CC2)nc(-c2ccnc3[nH]ccc23)n1 [AZD6738] + O=C(c1cc(Cc2n[nH]c(=O)c3ccccc23)ccc1F)N1CCN(C(=O)C2CC2)CC1 [Olaparib] (first compound max 10 µM, 7x7, partner max 10 µM)
5. COc1nnc2ccc(N3CCC(c4ccc(OCCN5CCN(C)C(=O)[C@H]5C)cc4)CC3)nn12 [AZD5153] + C[C@@H]1COCCN1C2=NC(=NC(=C2)C3(CC3)[S@](=N)(=O)C)C4=C5C=CNC5=NC=C4 [AZD6738] (first compound max 1 µM, 7x7, partner max 10 µM)
6. N#Cc1cnc(Nc2cc(NC[C@H]3CNCCO3)c(C(F)(F)F)cn2)cn1 [SRA737] + O=c1[nH]cc(F)c(=O)[nH]1 [5-Fluorouracil] (first compound max 10 µM, 7x7, partner max 20 µM)
7. COc1cccc(OCCCN)c1-c1cc(Nc2cnc(C#N)cn2)n[nH]1 [Prexasertib] + Cc1cc2ncnn2cc1Nc1ncc2c(n1)n(C1CCOCC1)c(=O)n2C [AZD7648] (first compound max 1 µM, 7x7, partner max 10 µM)
8. Cc1cc2ncnn2cc1Nc1ncc2c(n1)n(C1CCOCC1)c(=O)n2C [AZD7648] + O=C(c1cc(Cc2n[nH]c(=O)c3ccccc23)ccc1F)N1CCN(C(=O)C2CC2)CC1 [Olaparib] (first compound max 10 µM, 7x7, partner max 10 µM)

Result string:
1: 0.811; 2: 0.927; 3: 0.207; 4: 0.668; 5: 0.991; 6: 0.768; 7: 0.847; 8: 0.761

Please go through the list and note combination Emax for each molecule.
1. CN(C)CCCOc1ccc(-c2ccc3ncc4c(c3c2)n(C2CCOCC2)c(=O)n4C)cn1 [AZD0156] + O=C(c1cc(Cc2n[nH]c(=O)c3ccccc23)ccc1F)N1CCN(C(=O)C2CC2)CC1 [Olaparib] (first compound max 3 µM, partner max 3 µM)
2. NC1(C(=O)N[C@@H](CCO)c2ccc(Cl)cc2)CCN(c2ncnc3[nH]ccc23)CC1 [Capivasertib] + Cn1cnc2c(F)c(Nc3ccc(Br)cc3Cl)c(C(=O)NOCCO)cc21 [Selumetinib] (first compound max 10 µM, 7x7, partner max 10 µM)
3. COc1cccc(OCCCN)c1-c1cc(Nc2cnc(C#N)cn2)n[nH]1 [Prexasertib] + CN(C)CCCOc1ccc(-c2ccc3ncc4c(c3c2)n(C2CCOCC2)c(=O)n4C)cn1 [AZD0156] (first compound max 1 µM, 7x7, partner max 1 µM)

Result string:
1: 0.863; 2: 1; 3: 0.825

---

# Tested on: MN-60 (B-Lymphoblastic Leukemia)
# method: Bliss excess, mean over the matrix (fraction); higher = more synergy
Give Bliss excess for every item shown.
Numbers only.

Cc1c2c(nn1C)CSCc1cc(n(C)n1)CSc1cc(c3ccccc3c1)OCCCc1c(C(=O)O)n(C)c3c-2c(Cl)ccc13 [AZD5991] + C[C@@H]1COCCN1C2=NC(=NC(=C2)C3(CC3)[S@](=N)(=O)C)C4=C5C=CNC5=NC=C4 [AZD6738] (first compound max 1 µM, 7x7, partner max 10 µM) ... -0.0081

Turning now to a further compound:
Query string: Return Bliss excess (reported value) for this compound: C[C@@H](c1ccc2nccn2c1)n1nnc2ncc(-c3cnn(C)c3)nc21 [Savolitinib] + Cc1c2c(nn1C)CSCc1cc(n(C)n1)CSc1cc(c3ccccc3c1)OCCCc1c(C(=O)O)n(C)c3c-2c(Cl)ccc13 [AZD5991] (first compound max 1 µM, 7x7, partner max 1 µM)
Result string: -0.0334

---

# System: KU812 (Chronic Myelogenous Leukemia)
# method: Bliss excess, mean over the matrix (fraction); higher = more synergy
property.name: Bliss excess
Numbers only.

Answered cases to consult:
CN(CCO)CC[C@H](CSc1ccccc1)Nc1ccc(S(=O)(=O)NC(=O)c2ccc(N3CCC([C@@H](O)c4ccccc4-c4ccc(Cl)cc4)CC3)cc2)cc1S(=O)(=O)C(F)(F)F [AZD4320] + C[C@@H]1COCCN1C2=NC(=NC(=C2)C3(CC3)[S@](=N)(=O)C)C4=C5C=CNC5=NC=C4 [AZD6738] (first compound max 1 µM, 7x7, partner max 10 µM) ... 0.0007
COc1cc2c(cc1OCCCCCOc1cc3c(cc1OC)C(=O)N1C=C(C)C[C@H]1C=N3)N=C[C@@H]1CC(C)=CN1C2=O [SG3199] + O=C(c1cc(Cc2n[nH]c(=O)c3ccccc23)ccc1F)N1CCN(C(=O)C2CC2)CC1 [Olaparib] (first compound max 0.001 µM, 7x7, partner max 10 µM) ... -0.0288
C[C@@H](c1ccc2nccn2c1)n1nnc2ncc(-c3cnn(C)c3)nc21 [Savolitinib] + CC1(C)CCC(CN2CCN(c3ccc(C(=O)NS(=O)(=O)c4ccc(NCC5CCOCC5)c([N+](=O)[O-])c4)c(Oc4cnc5[nH]ccc5c4)c3)CC2)=C(c2ccc(Cl)cc2)C1 [Venetoclax] (first compound max 1 µM, 7x7, partner max 1 µM) ... -0.0303
CS(=O)(=O)CCNCc1ccc(-c2ccc3ncnc(Nc4ccc(OCc5cccc(F)c5)c(Cl)c4)c3c2)o1 [Lapatinib] + C[C@@H](Oc1cc(-c2cnn(C3CCNCC3)c2)cnc1N)c1c(Cl)ccc(F)c1Cl [Crizotinib] (first compound max 10 µM, 7x7, partner max 10 µM) ... -0.0598
Cc1c2c(nn1C)CSCc1cc(n(C)n1)CSc1cc(c3ccccc3c1)OCCCc1c(C(=O)O)n(C)c3c-2c(Cl)ccc13 [AZD5991] + C[C@@H](Nc1cc(F)cc(F)c1)c1cc(C(=O)N(C)C)cc2c(=O)cc(N3CCOCC3)oc12 [AZD8186] (first compound max 1 µM, 7x7, partner max 3 µM) ... -0.0554

In the following, a different compound is considered.
Query string: Give measured Bliss excess for NC1(C(=O)N[C@@H](CCO)c2ccc(Cl)cc2)CCN(c2ncnc3[nH]ccc23)CC1 [Capivasertib] + CCN(CCO)CCCOc1ccc2c(Nc3cc(CC(=O)Nc4cccc(F)c4)[nH]n3)ncnc2c1 [AZD2811] (first compound max 10 µM, 7x7, partner max 1 µM) (KU812 (Chronic Myelogenous Leukemia)).
Result string: 0.0173

---

# System: NCI-H520 (Squamous Cell Lung Carcinoma)
# method: combination Emax (second highest fraction inhibited in the dose matrix, 72 h); higher = more inhibition; extreme values may be limits of the assay
property.name: combination Emax
One number for each entry.

Okay, here is my list. What is combination Emax for each of these?
1. CS(=O)(=O)CCNCc1ccc(-c2ccc3ncnc(Nc4ccc(OCc5cccc(F)c5)c(Cl)c4)c3c2)o1 [Lapatinib] + NC1(c2ccc(-c3nc4ccn5c(=O)[nH]nc5c4cc3-c3ccccc3)cc2)CCC1 [MK-2206] (first compound max 10 µM, 7x7, partner max 10 µM)
2. COc1nnc2ccc(N3CCC(c4ccc(OCCN5CCN(C)C(=O)[C@H]5C)cc4)CC3)nn12 [AZD5153] + C[C@@H]1COCCN1C2=NC(=NC(=C2)C3(CC3)[S@](=N)(=O)C)C4=C5C=CNC5=NC=C4 [AZD6738] (first compound max 1 µM, 7x7, partner max 10 µM)
3. Cc1nc(Nc2ncc(C(=O)Nc3c(C)cccc3Cl)s2)cc(N2CCN(CCO)CC2)n1 [Dasatinib] + CC(=O)Nc1cccc(-n2c(=O)n(C3CC3)c(=O)c3c(Nc4ccc(I)cc4F)n(C)c(=O)c(C)c32)c1 [Trametinib] (first compound max 2 µM, 7x7, partner max 1 µM)
4. N#Cc1cnc(Nc2cc(NC[C@H]3CNCCO3)c(C(F)(F)F)cn2)cn1 [SRA737] + Nc1ccn([C@@H]2O[C@H](CO)[C@@H](O)C2(F)F)c(=O)n1 [Gemcitabine] (first compound max 10 µM, 7x7, partner max 0.3 µM)
5. O=C(c1cc(Cc2n[nH]c(=O)c3ccccc23)ccc1F)N1CCN(C(=O)C2CC2)CC1 [Olaparib] + Cc1c2c(nn1C)CSCc1cc(n(C)n1)CSc1cc(c3ccccc3c1)OCCCc1c(C(=O)O)n(C)c3c-2c(Cl)ccc13 [AZD5991] (first compound max 10 µM, 7x7, partner max 1 µM)
6. COc1nnc2ccc(N3CCC(c4ccc(OCCN5CCN(C)C(=O)[C@H]5C)cc4)CC3)nn12 [AZD5153] + CC1(C)CCC(CN2CCN(c3ccc(C(=O)NS(=O)(=O)c4ccc(NCC5CCOCC5)c([N+](=O)[O-])c4)c(Oc4cnc5[nH]ccc5c4)c3)CC2)=C(c2ccc(Cl)cc2)C1 [Venetoclax] (first compound max 1 µM, 7x7, partner max 1 µM)
7. Cc1c2c(nn1C)CSCc1cc(n(C)n1)CSc1cc(c3ccccc3c1)OCCCc1c(C(=O)O)n(C)c3c-2c(Cl)ccc13 [AZD5991] + CN(C)CCCOc1ccc(-c2ccc3ncc4c(c3c2)n(C2CCOCC2)c(=O)n4C)cn1 [AZD0156] (first compound max 1 µM, 7x7, partner max 1 µM)

Result string:
1: 0.922; 2: 0.869; 3: 0.233; 4: 0.892; 5: 0.104; 6: 0.569; 7: 0.509
